# System: SNB-75 CNS
# assay remarks: NCI-60 one-dose screen, 48 h
# condition description: 10 µM unless noted
The panel holds about 83,000 compounds, 20% with a hit somewhere; the sample as a whole holds those more often. Active and inactive are the calls of the source. Rule for the calls: active = growth percent below 10; inactive = the rest.
Labels: active, inactive

compound: O=C(NCCNc1nccc(-c2c(-c3cccc(O)c3)nc3sccn23)n1)c1ccccc1O
label value: inactive

compound: Cc1ccc2nc(-c3ccc(-n4on4-c4ccc(/C=C/c5ccc(-n6on6-c6ccc(-c7nc8ccc(C)cc8s7)cc6)cc5S(=O)(=O)O)c(S(=O)(=O)O)c4)cc3)sc2c1
label value: inactive

compound: Cc1c(Cl)ccc2c(C(=O)Cl)cc(-c3ccccc3)nc12
label value: inactive

compound: CN(C)CCCOc1c(Br)cc(/C=C/C(=O)N(C)CCc2cc(Br)c(OCCCN(C)C)c(Br)c2)cc1Br
label value: inactive

compound: O=C(Nc1ccccc1Cl)c1c[nH]c(=O)c(-c2ccc(N3CCCOC4(CC4)C3)cc2)c1
label value: inactive

compound: Cc1cn(C2CC(F)C(CO)O2)c(=O)[nH]c1=O (stereo not given)
label value: inactive

compound: COc1ccc(NC(=O)COCCOCCNC[C@@H]2C(=O)O[C@H]3[C@H]2CC/C(COC(=O)OC/C2=C/CC[C@@]4(C)O[C@H]4[C@H]4OC(=O)[C@@H](CN(C)C)[C@@H]4CC2)=C\CC[C@@]2(C)O[C@@H]32)c(O)c1C(N)=O
label value: inactive

compound: COc1cc(C(=O)NNC(=O)c2ccccc2C(=O)O)cc(OC)c1OC
label value: inactive

compound: O=C(Nc1ccc(-n2cc(-c3ccncc3)c(-c3ccc(O)c(Cl)c3)n2)cc1)Nc1ccc(Cl)c(C(F)(F)F)c1
label value: inactive

compound: CS(=O)(=O)OCC(COS(C)(=O)=O)C(c1ccccc1)c1ccccc1
label value: inactive

compound: COc1ccc2c(c1)C(=O)/C(=C/c1ccc(OCC(=O)c3ccc(Cl)cc3)cc1)O2
label value: active

compound: O=C(Nc1ccc(-n2cc(-c3ccncc3)c(-c3ccc(O)c(Cl)c3)n2)cc1)Nc1cc(C(F)(F)F)cc(C(F)(F)F)c1
label value: inactive

compound: c1ccc(CNCCN(CCNCc2ccccn2)Cc2ccc3ccccc3c2)nc1
label value: inactive

compound: O=C(NCCNc1nccc(-c2c(-c3cccc(O)c3)nc3sccn23)n1)c1cccc(C(F)(F)F)c1
label value: inactive

compound: O=C(CSc1nnc(-c2ccccc2)o1)Nc1ccc(C(=O)/C=C/c2ccccc2)cc1
label value: inactive

compound: CC(=O)O[C@@H]1[C@@H](OC(C)=O)[C@H](OC(C)=O)CO[C@H]1Nc1cccc2ccccc12
label value: inactive

compound: CC(NCCC(c1ccccc1)c1ccccc1)c1ccccc1 (stereo not given)
label value: inactive

compound: O=S1(=O)N(CCNc2nccc(-c3c(-c4cccc(O)c4)nc4sccn34)n2)CCN1Cc1ccccc1
label value: inactive

compound: CCCCOc1nc2ccc(Cl)cc2cc1/C=C/C(=O)/C=C/c1ccc(Cl)cc1
label value: inactive

compound: C=CCOc1ccc(/C(Cl)=N/N=C(\Cl)c2cc(OC)c(OC)c(OC)c2)cc1
label value: inactive

compound: CCC1S/C(=N\N=C(/C)c2cccs2)N(c2ccccc2)C1=O (stereo not given)
label value: inactive

compound: CCN(CC)CCN1C(=O)c2c(c3c4ccccc4[nH]c3c3[nH]c4ccccc4c23)C1=O
label value: inactive

compound: CCn1c(SC)nnc1-c1cc2c([nH]c3ccccc32)c(-c2cccc(O)c2)n1
label value: active

compound: Oc1ccc(O)c(-[n+]2ccccc2)c1
label value: inactive

compound: CCCOC(=O)c1ccc([N+](=O)[O-])o1
label value: inactive

---

# Tested on: SK-MEL-5 melanoma
# assay remarks: NCI-60 one-dose screen, 48 h
# condition description: 10 µM unless noted
Compounds without any hit were thinned out: in the full panel of roughly 83,000, 20% have a hit. Activity calls are given as the source filed them. How the source made its calls: active means growth percent below 10; inactive means the rest.
Labels: t = active, f = inactive

compound: CNCCCOc1c(Br)cc(CCNC(=O)/C(Cc2cc(Br)c(OC)c(Br)c2)=N/O)cc1Br
tested system: SK-MEL-5 melanoma
label value: t
//
compound: S=c1[nH]nc(Cn2c3ccccc3c3ccncc32)o1
tested system: SK-MEL-5 melanoma
label value: f
//
compound: CCCCCCCC(=O)SCC/C=C/[C@@H]1CC(=O)NCc2nc(cs2)C2=N[C@@](C)(CS2)C(=O)N[C@@H](C(C)C)C(=O)N1
tested system: SK-MEL-5 melanoma
label value: t
//
compound: CCCCCCCCN(CCCCCCCC)CC(O)c1cc(-c2ccccc2)nc2ccc(OC)cc12 (configuration not stated)
tested system: SK-MEL-5 melanoma
label value: f
//
compound: Cc1c(C(C)(C)C)cc(C(C)(C)C)c2c1CN(C)CO2
tested system: SK-MEL-5 melanoma
label value: f
//
compound: CN1C(=O)C2(SCC(C(=O)NCC(=O)OC(C)(C)C)N2C(=O)C2CCCCC2)c2ccccc21 (configuration not stated)
tested system: SK-MEL-5 melanoma
label value: f
//
compound: Cc1ccc(-c2cn3cc([N+](=O)[O-])ccc3n2)cc1
tested system: SK-MEL-5 melanoma
label value: f
//
compound: Cc1cc(O[C@@H]2O[C@@H](C)[C@H](O)[C@@H](O)[C@H]2O)c2c3c(c(O[C@@H]4O[C@@H](C)[C@H](O)[C@@H](O)[C@H]4O)cc2c1)C(=O)c1c(O)cccc1C3=O
tested system: SK-MEL-5 melanoma
label value: f
//
compound: O=C(O)c1ccc(-n2cc(/C=N/Nc3ccccc3F)c(-c3ccc(O)cc3)n2)cc1
tested system: SK-MEL-5 melanoma
label value: f
//
compound: O=C1/C(=C/c2cccc3cnccc23)Cc2cc(F)ccc21
tested system: SK-MEL-5 melanoma
label value: f
//
compound: Cc1cc(SCc2ccc(Cl)cc2Cl)nc(SCc2ccc(Cl)cc2Cl)n1
tested system: SK-MEL-5 melanoma
label value: f
//
compound: O=C(Nc1ccc(-n2ccc3c(NC(=O)c4ccccc4)nccc32)cc1)Nc1ccc(Cl)c(Cl)c1
tested system: SK-MEL-5 melanoma
label value: t
//
compound: Fc1ccc(Nc2ncnc3ccc(-c4cn[nH]c4)cc23)cc1Cl
tested system: SK-MEL-5 melanoma
label value: f
//
compound: c1nc(SC2=NCCN2)c2[nH]cnc2n1
tested system: SK-MEL-5 melanoma
label value: f
//
compound: O=C(Nc1ccc(-n2ccc3c(NC(=O)c4ccccc4)ncnc32)cc1)Nc1cccc(Cl)c1Cl
tested system: SK-MEL-5 melanoma
label value: f
//
compound: NC(N)=N/N=C/c1ccc([N+](=O)[O-])cc1
tested system: SK-MEL-5 melanoma
label value: f
//
compound: Cc1ccc(=O)n(-c2ccc(Br)cc2F)c1
tested system: SK-MEL-5 melanoma
label value: f

---

Collected growth values appear next to each entry.
# Tested on: NCI-H322M lung
# assay remarks: NCI-60 one-dose screen, 48 h (100 = growth as untreated, 0 = no growth, -100 = all killed)
# condition description: 10 µM unless noted
Compounds without any hit were thinned out: in the full panel of roughly 83,000, 20% have a hit. Active and inactive are the calls of the source. Rule for the calls: active = growth percent below 10; inactive = the rest.
recorded metric: growth

compound: CCc1cccc(-c2ccccc2)c1
observed measurement: 107% (inactive)
//
compound: O=C(COc1ccc(Cl)cc1)N1CCN(Cc2ccc3c(c2)OCO3)CC1
observed measurement: 105% (inactive)
//
compound: CCC1S/C(=N\N=C(/C)c2cc3ccccc3o2)N(c2ccccc2)C1=O (stereo not drawn)
observed measurement: 92.2% (inactive)
//
compound: COc1ccc(NC(=O)COCCOCCNC[C@@H]2C(=O)O[C@H]3[C@H]2CC/C(COC(=O)OC/C2=C/CC[C@@]4(C)O[C@H]4[C@H]4OC(=O)[C@@H](CN(C)C)[C@@H]4CC2)=C\CC[C@@]2(C)O[C@@H]32)c(O)c1C(N)=O
observed measurement: 102% (inactive)
//
compound: Cc1nccc2c3ccc(OCc4cn(Cc5ccc(Br)cc5)nn4)cc3n(CCCc3ccccc3)c12
observed measurement: 85.9% (inactive)
//
compound: CC1(C)Cc2c(Br)c(Br)c(Br)c(OCC(O)CN3CCN(c4ccccn4)CC3)c2O1 (stereo not drawn)
observed measurement: 57.6% (inactive)
//
compound: O=C(Nc1cccc([N+](=O)[O-])c1)c1ccc2ccccc2c1O
observed measurement: 105% (inactive)
//
compound: COc1ccc(-c2ccc(NC(=O)Nc3ccc(Cl)c(C(F)(F)F)c3)c(C)n2)cc1
observed measurement: 71.4% (inactive)
//
compound: COc1ccc(-c2coc3c(CO)c(O)ccc3c2=O)cc1
observed measurement: 52.9% (inactive)
//
compound: C=C1C(=O)O[C@H]2[C@H]1CC/C(COC(=O)c1ccc(Br)cc1)=C\CC[C@@]1(C)O[C@@H]21
observed measurement: 60.5% (inactive)
//
compound: COc1ccc(-c2cc3ccc(N(C)C)cc3nc2N)c(F)c1
observed measurement: 66.9% (inactive)
//
compound: COc1cc(NC(=O)c2cc(OC)c3ccn(C)c3c2)cc2c1C[C@]1(C)CC[C@@H](O)C(C)(C)[C@H]1O2
observed measurement: 90.4% (inactive)
//
compound: COc1cc(-c2nc3ccccc3s2)ccc1OCc1nc2n(n1)S(=O)(=O)c1ccccc1N2C
observed measurement: 68.9% (inactive)
